target: Btk (Homo sapiens); test: Btk kinase activity, TR-FRET assay; type: biochemical; settings: read-out: Btk (IC50)
Sequence (Q06187 whole entry): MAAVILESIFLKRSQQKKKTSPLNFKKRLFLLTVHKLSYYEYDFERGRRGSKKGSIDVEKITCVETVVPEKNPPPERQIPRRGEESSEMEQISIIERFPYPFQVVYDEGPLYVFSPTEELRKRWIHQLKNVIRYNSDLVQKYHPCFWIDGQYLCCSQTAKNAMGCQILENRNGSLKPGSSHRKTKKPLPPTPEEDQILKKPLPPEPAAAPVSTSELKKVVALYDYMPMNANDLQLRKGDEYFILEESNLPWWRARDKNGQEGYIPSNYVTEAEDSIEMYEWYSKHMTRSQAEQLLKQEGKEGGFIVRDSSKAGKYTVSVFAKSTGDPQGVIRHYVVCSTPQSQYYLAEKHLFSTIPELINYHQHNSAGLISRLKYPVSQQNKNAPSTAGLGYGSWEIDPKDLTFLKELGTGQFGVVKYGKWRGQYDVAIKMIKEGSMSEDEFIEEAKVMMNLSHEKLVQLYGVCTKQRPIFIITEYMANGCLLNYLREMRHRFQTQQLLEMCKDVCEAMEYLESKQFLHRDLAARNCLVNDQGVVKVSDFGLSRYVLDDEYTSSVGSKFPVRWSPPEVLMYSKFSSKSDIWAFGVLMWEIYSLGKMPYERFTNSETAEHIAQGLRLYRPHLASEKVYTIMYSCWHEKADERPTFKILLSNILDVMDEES
Please provide measured IC50 for the entries that follow.

Use these answered entries as a reference point.
STRUCTURE SMILES: C=CC(=O)N1CCC[C@@H](Nc2n[nH]c3nccc(Oc4cccc(C(=O)Nc5ncc(C)s5)c4)c23)C1
ENDPOINT VALUE: < 100 nM
//
STRUCTURE SMILES: Cc1cnc(NC(=O)[C@H]2CC[C@H](Oc3ccnc4[nH]nc(N[C@@H]5CCCN(C(=O)/C=C/CN(C)C6CC6)C5)c34)CC2)s1
ENDPOINT VALUE: > 10000 nM
//
STRUCTURE SMILES: CC#CC(=O)N1CCC[C@@H](Nc2n[nH]c3nccc(Oc4ccc(-c5ccc(C(F)(F)F)cn5)cc4)c23)C1
ENDPOINT VALUE: > 10000 nM
//
STRUCTURE SMILES: C=CC(=O)N1CCC[C@@H](Nc2n[nH]c3nccc(Oc4ccc(-c5nc6ccccc6s5)cc4)c23)C1
ENDPOINT VALUE: < 100 nM
//
STRUCTURE SMILES: Cc1ccnc(NC(=O)c2ccc(Oc3ccnc4[nH]nc(N[C@@H]5CCCN(C(=O)C#CCO)C5)c34)cc2)c1
ENDPOINT VALUE: < 100 nM
//
STRUCTURE SMILES: CN(C(=O)/C=C/CN(C)C1CC1)c1cccc(Nc2n[nH]c3nccc(Oc4ccc(Oc5ccccc5)cc4)c23)c1
ENDPOINT VALUE: < 100 nM

// next item, IC50 requested
(Q) Dear colleague, I am looking for the recorded IC50 of the following molecule: "Cc1ccnc(NC(=O)c2ccc(Oc3ccnc4[nH]nc(N[C@@H]5CCCN(C(=O)C6CCCC6)C5)c34)cc2)c1"
(A) < 100 nM

----------
target: Lck (Homo sapiens); assay: Lck kinase activity, TR-FRET assay; type: biochemical; conditions: read-out: LCK (IC50)
Sequence (P06239 whole entry, species assumed): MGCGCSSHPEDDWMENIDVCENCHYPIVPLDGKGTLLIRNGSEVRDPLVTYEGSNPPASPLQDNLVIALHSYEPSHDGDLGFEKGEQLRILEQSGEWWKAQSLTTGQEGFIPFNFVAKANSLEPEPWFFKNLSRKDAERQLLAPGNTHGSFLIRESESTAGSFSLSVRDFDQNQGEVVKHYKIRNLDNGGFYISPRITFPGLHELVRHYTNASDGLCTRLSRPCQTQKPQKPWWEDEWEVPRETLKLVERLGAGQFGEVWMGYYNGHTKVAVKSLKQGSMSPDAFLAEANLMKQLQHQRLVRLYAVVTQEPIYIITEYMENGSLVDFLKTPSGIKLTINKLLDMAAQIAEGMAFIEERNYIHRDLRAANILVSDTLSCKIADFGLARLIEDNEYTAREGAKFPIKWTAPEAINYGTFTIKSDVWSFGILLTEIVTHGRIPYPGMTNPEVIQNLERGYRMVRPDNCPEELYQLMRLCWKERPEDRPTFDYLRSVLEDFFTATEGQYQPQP
pIC50: −log10 of the molar value.
MEASUREMENT LABEL: pIC50

Quick one: give me pIC50 for each item below, same order please.
1. N#Cc1ccnc(NC(=O)c2ccc(Oc3ccnc4[nH]nc(N[C@@H]5CCCN(C(=O)C6CC6)C5)c34)cc2)c1 [compound 81]
2. CC(=O)N1CC[C@H](Nc2n[nH]c3nccc(Oc4cccc(C(=O)Nc5ccc(C(C)C)c(C)c5)c4)c23)C1 [compound 124]
3. Cc1cccc(NC(=O)c2ccc(Oc3ccnc4[nH]nc(N[C@@H]5CCCN(C(=O)C6(C)COC6)C5)c34)cc2)n1 [compound 113]
4. CN(C/C=C/C(=O)N1CC[C@@H](Nc2n[nH]c3nccc(Oc4ccc(C(=O)Nc5ncc[nH]5)cc4)c23)C1)C1CC1 [compound 67]

(A)
1: 6.00 to 7.00; 2: > 7.00; 3: 5.00 to 6.00; 4: < 5.00

----------
Please provide measured IC50 for the entries that follow.
target: UniProt:P06239; experiment: Lck kinase activity, TR-FRET assay; assay type: biochemical; details: read-out: LCK (IC50)

Use these answered entries as a reference point.
MOLECULE: Cc1ccnc(NC(=O)c2ccc(Oc3ccnc4[nH]nc(N[C@@H]5CCCN(C(=O)C6COC6)C5)c34)cc2)c1 [compound 90]
MEASUREMENT TARGET: UniProt:P06239
MEASUREMENT LABEL: IC50
ENDPOINT VALUE: 100 to 1000 nM
--
MOLECULE: Cc1ccnc(NC(=O)c2ccc(Oc3ccnc4[nH]nc(N[C@@H]5CCCN(C(=O)C(N)=O)C5)c34)cc2)c1 [compound 270]
MEASUREMENT TARGET: UniProt:P06239
MEASUREMENT LABEL: IC50
ENDPOINT VALUE: 100 to 1000 nM
--
MOLECULE: Cc1ccnc(NC(=O)c2ccc(Oc3ccnc4[nH]nc(N[C@@H]5CCCN(C(=O)C(=O)N(C)C)C5)c34)cc2)c1 [compound 98]
MEASUREMENT TARGET: UniProt:P06239
MEASUREMENT LABEL: IC50
ENDPOINT VALUE: 100 to 1000 nM
--
MOLECULE: CN(C/C=C/C(=O)N1CC[C@@H](Nc2n[nH]c3nccc(Oc4ccc(C(=O)Nc5cc(C6CC6)ccn5)cc4)c23)C1)C1CC1 [compound 60]
MEASUREMENT TARGET: UniProt:P06239
MEASUREMENT LABEL: IC50
ENDPOINT VALUE: 100 to 1000 nM
--
MOLECULE: Cc1ccnc(NC(=O)c2ccc(Oc3ccnc4[nH]nc(N[C@@H]5CCCN(C(=O)N6CCOCC6)C5)c34)cc2)c1 [compound 91]
MEASUREMENT TARGET: UniProt:P06239
MEASUREMENT LABEL: IC50
ENDPOINT VALUE: 1000 to 10000 nM

Quick one: give me IC50 for each item below, same order please.
1. Cc1cnc(NC(=O)c2ccc(Oc3ccnc4[nH]nc(N[C@@H]5CCCN(C(=O)/C=C/CN(C)C)C5)c34)cc2)s1 [compound 198]
2. CCOP(=O)(CCC(=O)N1CCC[C@@H](Nc2n[nH]c3nccc(Oc4ccc(C(=O)Nc5cc(C)ccn5)cc4)c23)C1)OCC [compound 273]
3. O=C(Nc1cc(C(F)(F)F)ccn1)c1ccc(Oc2ccnc3[nH]nc(C4CCCN(C(=O)C5CC5)C4)c23)cc1 (stereo not shown) [compound 218]
4. Cc1ccnc(NC(=O)c2ccc(Oc3ccnc4[nH]nc(NC5CCN(C(=O)C6(C#N)CC6)CC5)c34)cc2)c1 [compound 277]
5. CN1CCC(C(=O)N2CC[C@@H](Nc3n[nH]c4nccc(Oc5ccc(C(=O)Nc6cc(C(F)(F)F)ccn6)cc5)c34)C2)CC1 [compound 199]

(A)
1. 100 to 1000 nM
2. 1000 to 10000 nM
3. 1000 to 10000 nM
4. 1000 to 10000 nM
5. 100 to 1000 nM

----------
biological target: Btk (Homo sapiens); test: Btk kinase activity, TR-FRET assay; assay type: biochemical; conditions: read-out: Btk (IC50)
Please provide measured IC50 for the entries that follow.

Use these answered entries as a reference point.
STRUCTURE SMILES: Cc1ccnc(NC(=O)c2ccc(Oc3ccnc4[nH]nc(N[C@@H]5CCCN(C(=O)C6(C)CCNCC6)C5)c34)cc2)c1
IC50: < 100 nM
--
STRUCTURE SMILES: CCOC(=O)N1CCC[C@@H](Nc2n[nH]c3nccc(Oc4ccc(C(=O)Nc5cc(C#N)ccn5)cc4)c23)C1
IC50: < 100 nM
--
STRUCTURE SMILES: C=CC(=O)N1CCC[C@@H](Nc2n[nH]c3nccc(Oc4ccc(NC(=O)Nc5cc(C(F)(F)F)ccn5)cc4)c23)C1
IC50: < 100 nM
--
STRUCTURE SMILES: C=CC(=O)N1CCC[C@@H](Nc2n[nH]c3nccc(Oc4cccc(C(=O)Nc5ccc(C(C)C)c(C)c5)c4)c23)C1
IC50: < 100 nM

Quick one: give me IC50 for each item below, same order please.
1. CN(C/C=C/C(=O)N1CC[C@@H](Nc2n[nH]c3ncnc(Oc4ccc(Oc5ccccc5)cc4)c23)C1)C1CC1
2. CN(C/C=C/C(=O)N1CC[C@@H](N(C(=O)/C=C/CN(C)C2CC2)c2n[nH]c3ncnc(Oc4ccc(Oc5ccccc5)cc4)c23)C1)C1CC1

(A)
1. 100 to 1000 nM
2. 100 to 1000 nM

----------
Target: JAK3 (Homo sapiens, UniProt P52333)
Sequence (P52333 1-1124): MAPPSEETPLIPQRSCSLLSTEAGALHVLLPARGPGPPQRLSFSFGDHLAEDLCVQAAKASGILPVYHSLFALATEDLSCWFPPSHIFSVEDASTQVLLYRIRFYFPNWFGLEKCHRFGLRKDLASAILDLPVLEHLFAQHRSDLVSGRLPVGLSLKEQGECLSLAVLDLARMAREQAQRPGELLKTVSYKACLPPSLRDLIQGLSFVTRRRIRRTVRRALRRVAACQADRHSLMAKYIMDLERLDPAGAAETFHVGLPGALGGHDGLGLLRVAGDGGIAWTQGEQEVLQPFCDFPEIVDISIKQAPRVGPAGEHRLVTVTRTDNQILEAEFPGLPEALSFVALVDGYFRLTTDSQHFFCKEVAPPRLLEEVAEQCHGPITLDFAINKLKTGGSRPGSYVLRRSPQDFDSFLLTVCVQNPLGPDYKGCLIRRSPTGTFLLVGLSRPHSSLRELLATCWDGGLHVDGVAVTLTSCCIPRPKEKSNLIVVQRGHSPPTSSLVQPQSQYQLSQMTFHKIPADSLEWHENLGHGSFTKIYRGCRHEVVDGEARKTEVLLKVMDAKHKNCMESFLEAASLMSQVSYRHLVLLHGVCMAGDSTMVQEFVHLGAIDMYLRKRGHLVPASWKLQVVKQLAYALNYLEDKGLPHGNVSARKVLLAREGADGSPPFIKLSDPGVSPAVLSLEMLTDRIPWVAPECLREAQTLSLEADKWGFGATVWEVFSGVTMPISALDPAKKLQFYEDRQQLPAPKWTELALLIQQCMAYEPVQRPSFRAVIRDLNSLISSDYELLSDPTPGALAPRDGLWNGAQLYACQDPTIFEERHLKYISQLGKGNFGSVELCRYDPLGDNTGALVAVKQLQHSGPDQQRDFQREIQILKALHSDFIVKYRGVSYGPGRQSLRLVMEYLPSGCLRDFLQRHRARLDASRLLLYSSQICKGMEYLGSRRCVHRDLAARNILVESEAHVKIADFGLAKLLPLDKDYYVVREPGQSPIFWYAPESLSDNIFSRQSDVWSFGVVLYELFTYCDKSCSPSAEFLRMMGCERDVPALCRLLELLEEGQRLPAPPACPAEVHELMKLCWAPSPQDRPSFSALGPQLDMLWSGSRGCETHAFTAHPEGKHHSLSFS
pIC50: −log10 of the molar value.
Please provide measured pIC50 for the entries that follow.

Use these answered entries as a reference point.
STRUCTURE SMILES: Cc1ccnc(NC(=O)c2ccc(Oc3ccnc4[nH]nc(N[C@@H]5CCCN(C(=O)N(C)C)C5)c34)cc2)c1
pIC50: < 5.00
--
STRUCTURE SMILES: CN(C)CCCC(=O)N[C@@H]1CCCN(c2n[nH]c3nccc(Oc4ccc(C(=O)Nc5cc(C(F)(F)F)ccn5)cc4)c23)C1
pIC50: < 5.00
--
STRUCTURE SMILES: C=CC(=O)N1CCC[C@@H](Nc2n[nH]c3nccc(Oc4ccc(C(=O)Nc5nc6ccccc6s5)cc4)c23)C1
pIC50: > 7.00
--
STRUCTURE SMILES: Cc1ccnc(NC(=O)c2ccc(Oc3ccnc4[nH]nc(N[C@@H]5CCCN(C(=O)C6CCOCC6)C5)c34)cc2)c1
pIC50: < 5.00
--
STRUCTURE SMILES: Cc1cnc(NC(=O)c2ccc(Oc3ccnc4[nH]nc(N[C@@H]5CCCN(C(=O)/C=C/CN(C)C)C5)c34)cc2)s1
pIC50: < 5.00
--
STRUCTURE SMILES: CCNC(=O)N1CCC[C@@H](Nc2n[nH]c3nccc(Oc4ccc(C(=O)Nc5nc6ccccc6s5)cc4)c23)C1
pIC50: 6.00 to 7.00

// next item, pIC50 requested
(Q) Dear colleague, I am looking for the recorded pIC50 of the following compound: "CN(C)C/C=C/C(=O)N1CC[C@@H](Nc2n[nH]c3nccc(Oc4ccc(Oc5ccccc5)cc4)c23)C1"
(A) < 5.00
